target: Phosphatidylinositol 4,5-bisphosphate 3-kinase catalytic subunit delta isoform (Homo sapiens); assay: Inhibition of PI3K p110delta (unknown origin)
reported.metric: IC50

IC50 for CCn1c(=O)c(-c2cc[nH]n2)cc2c(C)nc(N)nc21 [VOXTALISIB] is 43 nM

---

biological target: Phosphatidylinositol 4,5-bisphosphate 3-kinase catalytic subunit beta isoform (Homo sapiens)
Sequence (P42338 whole entry, canonical isoform): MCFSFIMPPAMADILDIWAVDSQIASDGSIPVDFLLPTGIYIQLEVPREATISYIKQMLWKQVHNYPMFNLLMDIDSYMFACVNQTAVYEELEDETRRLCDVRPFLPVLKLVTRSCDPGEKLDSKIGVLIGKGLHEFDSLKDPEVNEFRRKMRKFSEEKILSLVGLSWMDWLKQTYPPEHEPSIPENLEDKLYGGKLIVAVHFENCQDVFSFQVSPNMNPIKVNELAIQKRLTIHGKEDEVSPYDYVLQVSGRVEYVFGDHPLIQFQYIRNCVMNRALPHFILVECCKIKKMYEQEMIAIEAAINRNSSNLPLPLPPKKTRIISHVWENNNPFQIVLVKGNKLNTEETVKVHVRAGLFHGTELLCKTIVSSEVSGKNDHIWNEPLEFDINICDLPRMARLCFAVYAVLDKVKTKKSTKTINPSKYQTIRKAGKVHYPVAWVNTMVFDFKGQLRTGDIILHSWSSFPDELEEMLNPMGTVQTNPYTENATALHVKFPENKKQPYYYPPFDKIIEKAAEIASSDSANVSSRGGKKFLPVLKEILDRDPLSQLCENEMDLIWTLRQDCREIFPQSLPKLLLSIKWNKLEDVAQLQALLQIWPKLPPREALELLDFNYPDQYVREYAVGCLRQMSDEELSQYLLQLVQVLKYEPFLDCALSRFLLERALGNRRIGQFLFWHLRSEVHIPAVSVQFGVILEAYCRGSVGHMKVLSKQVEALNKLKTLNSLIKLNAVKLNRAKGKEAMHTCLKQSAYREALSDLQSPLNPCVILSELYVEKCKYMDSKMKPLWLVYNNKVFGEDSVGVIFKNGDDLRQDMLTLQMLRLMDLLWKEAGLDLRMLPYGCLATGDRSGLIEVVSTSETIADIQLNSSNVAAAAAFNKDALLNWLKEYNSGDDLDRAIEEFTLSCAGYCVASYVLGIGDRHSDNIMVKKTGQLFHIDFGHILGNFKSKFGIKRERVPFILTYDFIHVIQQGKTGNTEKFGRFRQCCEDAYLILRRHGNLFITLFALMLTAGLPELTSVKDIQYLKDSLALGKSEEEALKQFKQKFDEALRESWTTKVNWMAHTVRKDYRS
reported.metric: pIC50
Note on pIC50: it is the negative log10 of concentration, concentration in mol/L.

pIC50 for COc1ccc(Cl)c(Nc2nc3ccccc3nc2NS(=O)(=O)c2cccc(NC(=O)C(C)(C)N)c2)c1 is 7.44

---

Target: Phosphatidylinositol 4,5-bisphosphate 3-kinase catalytic subunit delta isoform (Homo sapiens, UniProt O00329)
Sequence (O00329 whole entry): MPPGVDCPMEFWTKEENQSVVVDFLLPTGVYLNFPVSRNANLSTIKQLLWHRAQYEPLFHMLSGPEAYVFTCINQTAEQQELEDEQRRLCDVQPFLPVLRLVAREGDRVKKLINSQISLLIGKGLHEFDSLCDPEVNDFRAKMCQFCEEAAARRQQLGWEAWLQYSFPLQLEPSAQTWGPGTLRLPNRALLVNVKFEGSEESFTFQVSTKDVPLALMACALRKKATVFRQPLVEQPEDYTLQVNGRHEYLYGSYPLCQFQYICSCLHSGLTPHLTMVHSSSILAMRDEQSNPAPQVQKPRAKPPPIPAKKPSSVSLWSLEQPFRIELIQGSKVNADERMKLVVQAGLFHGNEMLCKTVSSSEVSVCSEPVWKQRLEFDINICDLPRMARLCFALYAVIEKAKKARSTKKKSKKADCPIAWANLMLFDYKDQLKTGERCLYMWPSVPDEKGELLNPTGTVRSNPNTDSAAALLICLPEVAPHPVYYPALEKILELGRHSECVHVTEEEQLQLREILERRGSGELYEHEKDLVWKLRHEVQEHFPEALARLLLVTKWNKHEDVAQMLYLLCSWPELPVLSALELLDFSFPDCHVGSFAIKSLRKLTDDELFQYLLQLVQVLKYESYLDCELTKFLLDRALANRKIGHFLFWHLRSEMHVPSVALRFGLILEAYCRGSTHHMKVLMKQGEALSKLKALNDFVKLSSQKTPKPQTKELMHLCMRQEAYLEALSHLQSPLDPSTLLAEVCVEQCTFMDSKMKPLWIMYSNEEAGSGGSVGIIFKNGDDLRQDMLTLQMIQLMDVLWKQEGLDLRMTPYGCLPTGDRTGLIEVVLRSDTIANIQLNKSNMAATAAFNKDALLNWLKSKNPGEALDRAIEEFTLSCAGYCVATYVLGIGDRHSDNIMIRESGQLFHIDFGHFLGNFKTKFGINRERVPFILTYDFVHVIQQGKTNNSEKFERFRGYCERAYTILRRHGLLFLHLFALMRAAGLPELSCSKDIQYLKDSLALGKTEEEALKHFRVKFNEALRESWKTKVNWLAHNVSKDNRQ
Assay: Inhibition of PI3Kdelta (unknown origin)
reported.metric: pIC50
Note on pIC50: it is the negative log10 of concentration, concentration in mol/L.

pIC50 for C[C@H](Nc1ncnc2[nH]cnc12)c1nc2ccc(F)cc2c(=O)n1-c1ccccc1 is 7.90
